- experimental.target: SUDV GPddmuc (Sudan virus (SUDV), UniProt Q66814 33-650)
- test: ELISA
endpoint.name: EC50 (nM)
The figure you give is taken to be in nM; do not add the unit.

Answered cases to consult:
FVM01P (antibody, V domains shown) VH: QVQLQESGPGLVKPSETLSLTCTVSGASISNYRWNWIRQPPGKGLEWIGEINGYSGSTNYNPSLKSRVTISKDASKNQFSLKLTSVTAADTAVYYCPIIGGFTLEWFDVWGPGVLVTVSS VL: DVVLTQSPSSLSASVGDRVTITCRASQGIRNYLNWYQQKPRKAPKLLIYAASSLQSGVPSRFSGSGSGTEFTLTISSLQAEDFATYYCLQGYRTPFTFGPGTKLDIKR: 0.047
FVM41 (antibody, V domains shown) VH: EVQLVQSGAEVKRPGESLKISCKTSGYSFTDTWISWVRQMPGKGLEWMGSIYPGDSETKYNPSFQGHVTISADKSVTTTYLKWSSLKASDTATYYCVKGSETWGQGVLVTVSS VL: ETVVTQPASLSASPGASASLTCTFSGGINVAGYNILWYQQKAGSPPRYLLRYKSDSTKDQGSGVPSRFSGSKDASANTGILRISGLQSEDEADYYCAIGHSSGVLFGGGTRLTVL: 0.053
FVM11 (antibody, V domains shown) VH: EVQLVQSGAEVKRPGESLTISCKTSGYSFTDSWVAWVRQMPGKGLEWLGSIYPGDSETKYNPSFQGHVTISADKSVTTTYLKWSSLKASDTATYYCVKGSETWGQGVLVTVSS VL: NFMLTQPASLSASPGASASLTCTFSGGINVAGYNILWYQQKAGSPPRYLLRYKSDSTKDQGSGVPSRFSGSKDASANTGILRISGLQSEDEADYYCAIGHSSGWIFGGGTRLTVL: 0.053

Input line: // query EC50 value for entry FVM28 (antibody, V domains shown) VH: EVQLVQSGAEVKRPGESLKISCQTSGYRFTSSWISWVRQMPGKGLEWMGAIDPSDSETRYSPSFQGQVTISADKSISTAYLKWSSLKASDTATYYCVKGSETWGQGVLVTVSS VL: QAALTQPASLSASPGASASLTCTFSGGINVAGYHILWYQQKPGSPPRYLLRYKSDSEKDQGSGVPSRFSGSKDASANRGILRISGLQSEDEADYYCAIGHSSSGWVFGGGTRLTVL
Output line: 0.047
